This collection of values is drawn from patent US20100076010A1.

- method notes: Evaluation of metabolic stability in human liver microsomes
- Type: in vitro ADME
- run conditions: in vitro t1/2; 0.5 mg/mL human liver microsomes, 1 μM test compound, 2 mM NADPH, pH 7.4, 37° C., 0-30 minutes; average of two experiments; read-out: Half-life (t1/2) (min) ± SD
attribute measured: half-life at 1 μM (min)

Incoming: Quick one: half-life at 1 μM of [2H]C([2H])(O)C([2H])([2H])C([2H])([2H])N1CCc2cc(C[C@@H](C)NCCOc3ccccc3OCC(F)(F)F)cc(C(N)=O)c21 [Compound 111] ?
Outgoing: 32

Incoming: Quick one: half-life at 1 μM of [2H]C([2H])(O)C([2H])([2H])C([2H])([2H])N1CCc2cc(C[C@@H](C)NC([2H])([2H])C([2H])([2H])Oc3ccccc3OC([2H])([2H])C(F)(F)F)cc(C(N)=O)c21 [Compound 108] ?
Outgoing: 44

Incoming: Quick one: half-life at 1 μM of [2H]C([2H])(N[C@H](C)Cc1cc2c(c(C(N)=O)c1)N(CCCO)CC2)C([2H])([2H])Oc1ccccc1OC([2H])([2H])C(F)(F)F [Compound 110] ?
Outgoing: 43

Incoming: Quick one: half-life at 1 μM of C[C@H](Cc1cc2c(c(C(N)=O)c1)N(CCCO)CC2)NCCOc1ccccc1OCC(F)(F)F [Silodosin, reference compound] ?
Outgoing: 37
